Tested on: Plasmodium falciparum
assay_remarks: Anti-protozoan data: P. falcip. IC50
Type: cell-based
condition_summary: Tables VI(a), VI(c), read-out: P. falcip. IC50
Please provide measured IC50 for the entries that follow.
One number for each entry, in nM.

Below, each entry is followed by its recorded IC50 result.
Asked: Consider the compound shown here: CC(C)NC(=N)c1ccc(OCCCOc2ccc(-c3cc4cc(C(=N)NC(C)C)ccc4o3)cc2)cc1.Cl.Cl [Compound 45, dihydrochloride] What is its recorded IC50?
Given back: 41.8

Asked: How about this compound: CC(C)NC(=N)c1ccc(OCCCCOc2ccc(-c3cc4cc(C(=N)NC(C)C)ccc4o3)cc2)cc1.Cl.Cl [Compound 48, dihydrochloride]
Given back: 302

Now for another entry.
Asked: Consider the compound shown here: Cl.Cl.N=C(N)c1ccc(OCCCOc2cccc(-c3cc4cc(C(=N)N)ccc4o3)c2)cc1 [Compound 32, dihydrochloride] What is its recorded IC50?
Given back: 39.7
